B1: HHH_rd1_0493 (parent)
chain: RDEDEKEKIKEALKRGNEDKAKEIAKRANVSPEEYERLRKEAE

variants of: B1; test: folding stability dG (cDNA display proteolysis); higher = more stable; settings: PBS, room temperature
Some variants, each annotated with its measured folding stability dG.
Write the number in kcal/mol without appending the unit.

Problem: Can you share its folding stability dG? I mean this variant: D19G
Result: 2.76
